The reported measurements were obtained from ChEMBL document CHEMBL1201862.

Items are presented alongside their recorded GI50.
test system: HOP-62; assay: NCI tumour cell line growth inhibition, 48 h
Active and inactive are the calls of the source. Rule as the data show it: active = GI50 up to about 1.1 µM and inactive = higher.

compound=CC(C)(C)c1ccc(C(O)(c2ccc(C(C)(C)C)cc2)c2ccc(C(C)(C)C)cc2)cc1 recorded_value="> 100 µM (inactive)"

Please look at the following compound next.
For the compound O=C1C2=Cc3ccccc3CCN2c2ccccc21 , the measured GI50 on HOP-62 was > 63.8 µM (inactive)

###

test system: SK-OV-3; test: NCI tumour cell line growth inhibition, 48 h
Activity calls are given as the source filed them. No stated cut-off is given here; in the data, active = GI50 up to about 1.1 µM and inactive = higher.
Items are presented alongside their recorded GI50.

Some molecules with known GI50 results, for comparison:
molecule="Cc1cccc2c1[C@]13OC(C)[C@]4(C)CC5OC(=O)[C@@]1(C)[C@@H]5[C@]34C(=O)O2 (stereo partly drawn)" outcome_measure=GI50 recorded_value="> 100 µM (inactive)"
molecule=COc1cc(/N=N\c2ccc(OC)c(S(=O)(=O)O)c2)c(C)cc1/N=N\c1ccc(/C=C/c2ccc(/N=[N+](/[O-])c3ccc(/C=C/c4ccc(/N=N/c5cc(C)c(/N=N\c6ccc(OC)c(S(=O)(=O)O)c6)cc5OC)cc4S(=O)(=O)O)c(S(=O)(=O)O)c3)cc2S(=O)(=O)O)c(S(=O)(=O)O)c1 outcome_measure=GI50 recorded_value="> 100 µM (inactive)"

For the molecule O=C1CNS(=O)(=O)N1 , the measured GI50 on SK-OV-3 was > 100 µM (inactive)

###

test system: MDA-MB-231; experiment: NCI tumour cell line growth inhibition, 48 h
Active and inactive are the calls of the source. No stated cut-off is given here; in the data, active = GI50 up to about 1.1 µM and inactive = higher.
outcome.measure: GI50

For the compound CC(C)(CN1CCCCC1)C(/C=C/c1ccccc1)=N\NC(=O)N/N=C(/C=C/c1ccccc1)C(C)(C)CN1CCCCC1 , the measured GI50 on MDA-MB-231 was 1.36 µM (inactive)

For the compound CC1C2CC(CC23OCC(CCl)O3)C1(C)C (stereo not drawn) , the measured GI50 on MDA-MB-231 was > 100 µM (inactive)

For the compound O=C(Cc1ccccc1)NN1C(=O)/C(=C\c2ccc([N+](=O)[O-])cc2)S/C1=N\c1ccccc1 , the measured GI50 on MDA-MB-231 was > 100 µM (inactive)

For the compound COc1ccc2cc(NC(=O)N/N=C\c3ccc(Cl)cc3)ccc2c1 , the measured GI50 on MDA-MB-231 was 27.5 µM (inactive)

###

system: SK-OV-3; experiment: NCI tumour cell line growth inhibition, 48 h
The source made the active and inactive calls. Rule as the data show it: active = GI50 up to about 1.1 µM and inactive = higher.
Items are presented alongside their recorded GI50.

Some compounds with known GI50 results, for comparison:
compound=Cc1nc(=O)n2c(C)n[nH]c2c1C(=O)Nc1cc(Cl)cc(Cl)c1 recorded_value="29 µM (inactive)"
compound=NC(=O)c1ccc([N+](=O)[O-])cc1 recorded_value="> 100 µM (inactive)"
compound="CC1=CC2=C(C(N)=O)C(=O)OC2(C)C(c2ccccc2)C1 (stereo unspecified)" recorded_value="> 100 µM (inactive)"
compound=O=C1C=Cc2c(Cl)sc(Cl)c21 recorded_value="15.2 µM (inactive)"
compound=O=[N+]([O-])c1ccc2[nH]c(=S)[nH]c(=S)c2c1 recorded_value="> 100 µM (inactive)"
compound=Cc1cc2nc(-c3cc(C(C)(C)C)c(O)c(C(C)(C)C)c3)[nH]c2cc1C recorded_value="> 100 µM (inactive)"

Lookup result for CCOC(=O)C1=c2[nH]c3cccc4cccc(c43)n2C(=O)CC1c1ccccc1 (stereo unspecified) ; measured GI50: > 100 µM (inactive)

Lookup result for Cn1c2ccccc2n2c3ncccc3c(=O)cc12 ; measured GI50: > 100 µM (inactive)

Lookup result for COc1cc(C2Oc3cc(-c4oc5cc(O)cc(O)c5c(=O)c4O)ccc3OC2CO)ccc1O (stereo unspecified) [DEHYDROSILYLBIN] ; measured GI50: 21.4 µM (inactive)

Lookup result for CC(=O)Nc1ccc(S(=O)(=O)/N=c2/sc(S(N)(=O)=O)nn2C)cc1 ; measured GI50: > 100 µM (inactive)

Lookup result for O=C(NC(Cc1ccc(I)cc1)C(=O)O)c1ccc(Br)cc1 (stereo unspecified) ; measured GI50: > 100 µM (inactive)

###

test system: IGROV-1; assay: NCI tumour cell line growth inhibition, 48 h
Activity calls are given as the source filed them. No stated cut-off is given here; in the data, active = GI50 up to about 1.1 µM and inactive = higher.
In this exercise, the only acceptable responses are active, inactive

Use the examples below as a reference point.
molecule="CC1CN=C(Nc2ccc(S(N)(=O)=O)cc2)S1 (configuration not stated)" study_target=IGROV-1 class_name=inactive
molecule="CC1CCC23COC(=O)C2C(O)CCC3C1(C)CC(O)c1ccoc1 (configuration not stated)" study_target=IGROV-1 class_name=inactive
molecule=Brc1ccccc1-c1ncc(-c2ccccc2)o1 study_target=IGROV-1 class_name=inactive

stdin: I would be grateful if you could indicate the recorded call for NC(=O)N/N=C\CC(O)(C(F)(F)Cl)C(F)(F)Cl .
stdout: inactive

stdin: I would be grateful if you could indicate the recorded call for CCOC(=O)C1=c2[nH]c3cccc4cccc(c43)n2C(=O)CC1c1ccccc1 (configuration not stated) .
stdout: inactive

stdin: I would be grateful if you could indicate the recorded call for O=C1CC(c2ccc([N+](=O)[O-])cc2)C2(C(=O)NC(=S)NC2=O)C(c2ccc([N+](=O)[O-])cc2)C1 (configuration not stated) .
stdout: inactive

stdin: I would be grateful if you could indicate the recorded call for CCOP(=O)(OCC)c1cc(-c2ccccc2)ccc1N .
stdout: inactive

stdin: I would be grateful if you could indicate the recorded call for NC(=O)c1ncn(C2OC(CO)C(O)C2O)c1O (configuration not stated) .
stdout: inactive

###

Items are presented alongside their recorded GI50.
test system: BT-549; experiment: NCI tumour cell line growth inhibition, 48 h
The source made the active and inactive calls. Cut-off read from the data, not from the text of the source: active = GI50 up to about 1.1 µM and inactive = higher.

Some compounds with known GI50 results, for comparison:
compound=CCC[C@@H]1C(=O)N=C(N)N1C(=O)OCc1ccccc1 study_target=BT-549 recorded_value="> 100 µM (inactive)"
compound=c1ccc(/C(=N/Nc2ccncn2)c2ccccn2)cc1 study_target=BT-549 recorded_value="35.1 µM (inactive)"
compound=COc1cc2c(cc1OC)C(=O)/C(=C/c1ccc([N+](=O)[O-])cc1)CC2 study_target=BT-549 recorded_value="> 10 µM (inactive)"
compound="COC(=O)C1CCC(=O)N1C(c1ccccc1)c1ccc(OC)c(OC)c1 (stereo unspecified)" study_target=BT-549 recorded_value="> 100 µM (inactive)"
compound=Cc1c(C#N)c2nc3ccccc3n2c(=O)/c1=C/Nc1ccc(Cl)cc1 study_target=BT-549 recorded_value="22.7 µM (inactive)"

Lookup result for O=c1c(=O)c2cscc2c1=O ; measured GI50: 4.85 µM (inactive)

Lookup result for CCOC(=O)c1ccc(/N=C2\S/C(=C\C(=S)Nc3ccccc3)N(c3ccccc3)\C2=N/c2ccc(C(=O)OCC)cc2)cc1 ; measured GI50: 62.7 µM (inactive)

Lookup result for CCOC(=O)C(NC(=O)CC(C)C)(N1CCN(c2cc3c(cc2F)c(=O)c(C(=O)O)cn3C2CC2)CC1)C(F)(F)F (stereo unspecified) ; measured GI50: 16.3 µM (inactive)

Lookup result for CC1=CC2=C(C(N)=O)C(=O)OC2(C)C(c2ccccc2)C1 (stereo unspecified) ; measured GI50: > 100 µM (inactive)

Lookup result for Cn1c2ccccc2n2c(=O)c3cccnc3c(C#N)c12 ; measured GI50: 17.5 µM (inactive)

Lookup result for Cn1c2ccccc2n2c3ncccc3c(=O)cc12 ; measured GI50: 65.8 µM (inactive)

###

test system: A498; assay: NCI tumour cell line growth inhibition, 48 h
Active and inactive are the calls of the source. Rule as the data show it: active = GI50 up to about 1.1 µM and inactive = higher.
outcome.measure: GI50

molecule=CC1=NN(c2nc(N)nc(C/C(N)=N/O)n2)C(C)(C)C1 outcome_measure=GI50 recorded_value="> 100 µM (inactive)"
molecule="CC1CCCC(C(=O)/C(=C/c2cccc(Cl)c2)C(=O)C(=O)O)C1 (stereo unspecified)" outcome_measure=GI50 recorded_value="> 100 µM (inactive)"
molecule=CCCCCCCCCCCCOC(=N)N1CCOCC1 outcome_measure=GI50 recorded_value="6.59 µM (inactive)"
molecule=CCC[C@@H]1C(=O)N=C(N)N1C(=O)OCc1ccccc1 outcome_measure=GI50 recorded_value="> 100 µM (inactive)"
molecule=CN(C)c1ccc(/C=C2\C[C@H]3[C@@H]4CCc5cc(OCCN6CCCC6)ccc5[C@H]4CC[C@]3(C)[C@H]2O)cc1 outcome_measure=GI50 recorded_value="17.8 µM (inactive)"
molecule="O=C1CC(c2ccc([N+](=O)[O-])cc2)C2(C(=O)NC(=S)NC2=O)C(c2ccc([N+](=O)[O-])cc2)C1 (stereo unspecified)" outcome_measure=GI50 recorded_value="32.4 µM (inactive)"
molecule="O=C(NC(Cc1ccc(I)cc1)C(=O)O)c1ccc(Br)cc1 (stereo unspecified)" outcome_measure=GI50 recorded_value="> 100 µM (inactive)"
molecule=COc1c(C)c(OCC=C(C)C)cc(CO)c1CO outcome_measure=GI50 recorded_value="44.1 µM (inactive)"
molecule="CCOc1ccc2nc(NC(=O)/C(CC(=O)CC(C3=C(O)c4ccccc4CC3=O)c3ccccc3)=N\\O)sc2c1 (stereo unspecified)" outcome_measure=GI50 recorded_value="> 100 µM (inactive)"
molecule=O=C(CC(=O)c1ccccc1)C(=O)Nc1ccc(Cl)cc1 outcome_measure=GI50 recorded_value="> 100 µM (inactive)"

Lookup result for Cc1cccc2c1[C@]13OC(C)[C@]4(C)CC5OC(=O)[C@@]1(C)[C@@H]5[C@]34C(=O)O2 (stereo partly specified) ; measured GI50: > 100 µM (inactive)

Lookup result for CCC[C@H]1O[C@@H]2CC(=O)O[C@@H]2C2=C1C(=O)C=CC2=O ; measured GI50: 34.2 µM (inactive)

Lookup result for O=C(Cc1ccccc1)NN1C(=O)/C(=C\c2ccc([N+](=O)[O-])cc2)S/C1=N\c1ccccc1 ; measured GI50: > 100 µM (inactive)

Lookup result for O=C1c2ccccc2C(=O)c2c(NCCCNCCO)ccc(NCCCNCCO)c21 ; measured GI50: 15.9 µM (inactive)

Lookup result for C=CCSSCC=C ; measured GI50: > 100 µM (inactive)

Lookup result for COc1ccc(C(CC(=O)C(C)(C)CN2CCCCC2)SCCS(=O)(=O)O)cc1 (stereo unspecified) ; measured GI50: 26.2 µM (inactive)

Lookup result for CC(NC1=NCCO1)c1ccsc1 (stereo unspecified) ; measured GI50: > 100 µM (inactive)

Lookup result for COc1ccc(OC)c(NC(=O)C(=O)NNC(=O)c2sc(NNC(C)=O)nc2C)c1 ; measured GI50: 8.3 µM (inactive)

Lookup result for NC(=O)N/N=C\CC(O)(C(F)(F)Cl)C(F)(F)Cl ; measured GI50: > 10 µM (inactive)

Lookup result for C=C1CCC2C(C)(CO)C(O)CCC2(C)C1C/C=C1\C(=O)OCC1O (stereo unspecified) ; measured GI50: 32.7 µM (inactive)

Lookup result for Cn1c2c(c3ccccc31)CC(=S)N1CCCC(CC2O)C1 (stereo unspecified) ; measured GI50: > 100 µM (inactive)
